Values from patent US20100173888A1

- target.of.assay: human recombinant H-PGDS (Homo sapiens, UniProt O60760)
- Sequence (O60760 whole entry): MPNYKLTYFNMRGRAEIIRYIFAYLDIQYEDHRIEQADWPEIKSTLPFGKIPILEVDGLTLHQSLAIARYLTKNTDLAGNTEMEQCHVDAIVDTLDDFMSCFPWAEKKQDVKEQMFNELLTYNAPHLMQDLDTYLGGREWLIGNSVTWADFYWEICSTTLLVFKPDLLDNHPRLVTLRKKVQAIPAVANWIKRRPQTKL
- assay.name: Slightly modified fluorescence intensity h-PGDS TBA enzyme assay (1:40,000 enzyme, 40 second reaction, 1/2 log dilutions, top concentration typically 10 μM)
- Format: biochemical
- test.settings: slightly modified assay: 1:40,000 human recombinant H-PGDS
pIC50: −log10 of the molar value.
property.measured: pIC50

[
  {
    "compound": "N[C@H]1CCCC[C@@H]1NC(=O)[C@@H]1CCC[C@H](NC(=O)c2ccc(-c3cccc(F)c3)nc2)C1 (mixture of isomers) [Example 64B]",
    "property.measured": "pIC50",
    "measured.number": 7.19
  },
  {
    "compound": "Cc1nccn1C[C@H]1CC[C@H](NC(=O)c2ccc(-c3cccc(F)c3)nc2)CC1 [Example 113]",
    "property.measured": "pIC50",
    "measured.number": 8.01
  },
  {
    "compound": "N[C@H]1CCCC[C@H]1NC(=O)[C@@H]1CCC[C@H](NC(=O)c2ccc(-c3cccc(F)c3)nc2)C1 (mixture of isomers) [Example 64L]",
    "property.measured": "pIC50",
    "measured.number": 6.59
  },
  {
    "compound": "O=C(NC1CCC(c2ncc[nH]2)CC1)c1ccc(-c2cccc(F)c2)nc1 (single isomer, unassigned) [Example 63]",
    "property.measured": "pIC50",
    "measured.number": 7.89
  },
  {
    "compound": "CC(C)(C)NC(=O)[C@@H]1CCC[C@H](NC(=O)c2ccc(-c3cccc(F)c3)nc2)C1 (relative stereo) [Example 38]",
    "property.measured": "pIC50",
    "measured.number": 8.07
  },
  {
    "compound": "CN(C)C[C@H]1CC[C@@H](NC(=O)c2ccc(-c3cccc(F)c3)nc2)CC1 [Example 67]",
    "property.measured": "pIC50",
    "measured.number": 6.93
  },
  {
    "compound": "O=C(N[C@@H]1CC[C@H](C(=O)N2CC[C@H](O)C2)C1)c1ccc(-c2cccc(F)c2)nc1 [Example 15]",
    "property.measured": "pIC50",
    "measured.number": 7.99
  },
  {
    "compound": "COCCNC1CCC(NC(=O)c2ccc(-c3cccc(F)c3)nc2)CC1 (single isomer, unassigned) [Example 55]",
    "property.measured": "pIC50",
    "measured.number": 7.73
  },
  {
    "compound": "O=C(N[C@H]1CC[C@H](C(=O)N2CCOCC2)CC1)c1ccc(-c2cccc(F)c2)nc1 [Example 91]",
    "property.measured": "pIC50",
    "measured.number": 8.40
  },
  {
    "compound": "O=C(N[C@H]1CC[C@H](C(=O)NC2CCCC2)CC1)c1ccc(-c2cccc(F)c2)nc1 [Example 86]",
    "property.measured": "pIC50",
    "measured.number": 7.59
  },
  {
    "compound": "O=C(N[C@H]1CC[C@@H](C(=O)O)C1)c1ccc(-c2cccc(F)c2)nc1 [Example 11b]",
    "property.measured": "pIC50",
    "measured.number": 7.86
  },
  {
    "compound": "O=C(N[C@H]1CCC[C@@H](C(=O)NCc2ccccc2)C1)c1ccc(-c2cccc(F)c2)nc1 (relative stereo) [Example 30]",
    "property.measured": "pIC50",
    "measured.number": 7.59
  },
  {
    "compound": "CCn1cnc2c1CCC(NC(=O)c1ccc(-c3cccc(F)c3)nc1)C2 (stereo not drawn) [Example 126]",
    "property.measured": "pIC50",
    "measured.number": 8.39
  },
  {
    "compound": "O=C(NC1CCCc2cccnc21)c1ccc(-c2cccc(F)c2)nc1 (stereo not drawn) [Example 128]",
    "property.measured": "pIC50",
    "measured.number": 6.75
  },
  {
    "compound": "CCN1CCN(C(=O)[C@H]2CC[C@H](NC(=O)c3ccc(-c4cccc(F)c4)nc3)CC2)CC1 [Example 96]",
    "property.measured": "pIC50",
    "measured.number": 7.63
  }
]

* * *

- target.of.assay: human recombinant H-PGDS (Homo sapiens, UniProt O60760)
- assay.name: Slightly modified fluorescence intensity h-PGDS TBA enzyme assay (1:40,000 enzyme, 40 second reaction, 1/2 log dilutions, top concentration typically 10 μM)
- Format: biochemical
- test.settings: slightly modified assay: 1:40,000 human recombinant H-PGDS
pIC50: −log10 of the molar value.

[
  {
    "compound": "O=C(N[C@H]1CC[C@@H](CN2CCOCC2)CC1)c1ccc(-c2cccc(F)c2)nc1 [Example 80]",
    "pIC50": 7.78
  },
  {
    "compound": "CN1CCN(C(=O)C2(C)CCC(NC(=O)c3ccc(-c4cccc(F)c4)nc3)CC2)CC1 (stereo not drawn) [Example 118]",
    "pIC50": 7.29
  },
  {
    "compound": "COCCNC(=O)[C@@H]1CCC[C@H](NC(=O)c2ccc(-c3cccc(F)c3)nc2)C1 [Example 64A]",
    "pIC50": 8.08
  },
  {
    "compound": "O=C(N[C@H]1CCC[C@@H](C(=O)N[C@H]2CCNC2=O)C1)c1ccc(-c2cccc(F)c2)nc1 (mixture of isomers) [Example 64H]",
    "pIC50": 7.89
  },
  {
    "compound": "CN(C)C(=O)C[C@H]1CC[C@@H](NC(=O)c2ccc(-c3cccc(F)c3)nc2)CC1 [Example 78]",
    "pIC50": 8.10
  },
  {
    "compound": "O=C(NC1CCC(NC2CCOC2)CC1)c1ccc(-c2cccc(F)c2)nc1 (single isomer, unassigned) [Example 56]",
    "pIC50": 7.51
  },
  {
    "compound": "O=C(N[C@@H]1CC[C@H](C(=O)N2CCNCC2)C1)c1ccc(-c2cccc(F)c2)nc1 [Example 13]",
    "pIC50": 7.78
  },
  {
    "compound": "N[C@@H]1CCN(C(=O)[C@H]2CC[C@H](NC(=O)c3ccc(-c4cccc(F)c4)nc3)CC2)C1 [Example 99]",
    "pIC50": 7.95
  },
  {
    "compound": "O=C(N[C@H]1CC[C@H](C(=O)N2CCC(O)CC2)CC1)c1ccc(-c2cccc(F)c2)nc1 [Example 85]",
    "pIC50": 8.56
  },
  {
    "compound": "O=C(N[C@@H]1CCC[C@H](O)C1)c1ccc(-c2cccc(F)c2)nc1 (relative stereo) [Example 26]",
    "pIC50": 7.74
  },
  {
    "compound": "COCCN(C)C1CCC(NC(=O)c2ccc(-c3cccc(F)c3)nc2)CC1 (single isomer, unassigned) [Example 58]",
    "pIC50": 6.51
  },
  {
    "compound": "CC(C)(C)NC(=O)[C@H]1CC[C@@H](NC(=O)c2ccc(-c3cccc(F)c3)nc2)CC1 [Example 75]",
    "pIC50": 7.69
  },
  {
    "compound": "O=C(N[C@@H]1CCCC[C@@H]1O)c1ccc(-c2cccc(F)c2)nc1 (relative stereo) [Example 23]",
    "pIC50": 7.76
  },
  {
    "compound": "CNCCN(C)C(=O)[C@H]1CC[C@H](NC(=O)c2ccc(-c3cccc(F)c3)nc2)CC1 [Example 93]",
    "pIC50": 7.82
  },
  {
    "compound": "COCCN(C)C1CCC(NC(=O)c2ccc(-c3cccc(F)c3)nc2)CC1 (single isomer, unassigned) [Example 59]",
    "pIC50": 7.52
  },
  {
    "compound": "CN(C)C(=O)C[C@H]1CC[C@H](NC(=O)c2ccc(-c3cccc(F)c3)nc2)CC1 [Example 95]",
    "pIC50": 8.20
  },
  {
    "compound": "O=C(NC1CCC(N2CCOCC2)CC1)c1ccc(-c2cccc(F)c2)nc1 (single isomer, unassigned) [Example 50]",
    "pIC50": 8.24
  },
  {
    "compound": "O=C(NC1CCC(n2ccnc2)CC1)c1ccc(-c2cccc(F)c2)nc1 (stereo not drawn) [Example 47]",
    "pIC50": 7.64
  },
  {
    "compound": "CN1CCN(C[C@H]2CC[C@@H](NC(=O)c3ccc(-c4cccc(F)c4)nc3)CC2)CC1 [Example 81]",
    "pIC50": 7.27
  },
  {
    "compound": "O=C(N[C@H]1CC[C@H](C(=O)N2CCCC2)CC1)c1ccc(-c2cccc(F)c2)nc1 [Example 87]",
    "pIC50": 8.68
  },
  {
    "compound": "O=C(N[C@@H]1CC[C@H](C(=O)O)C1)c1ccc(-c2cccc(F)c2)nc1 [Example 11a]",
    "pIC50": 6.90
  },
  {
    "compound": "O=C(N[C@H]1CC[C@@H](C(=O)NC2CCCC2)CC1)c1ccc(-c2cccc(F)c2)nc1 [Example 69]",
    "pIC50": 7.83
  },
  {
    "compound": "O=C(N[C@H]1CC[C@@H](O)CC1)c1ccc(-c2cccc(F)c2)nc1 [Example 65]",
    "pIC50": 7.80
  },
  {
    "compound": "O=C(N[C@H]1CCC[C@@H](C(=O)N2CCC(O)CC2)C1)c1ccc(-c2cccc(F)c2)nc1 (relative stereo) [Example 28]",
    "pIC50": 8.43
  },
  {
    "compound": "CN(C)C(=O)[C@H]1CC[C@@H](NC(=O)c2ccc(-c3cccc(F)c3)nc2)CC1 [Example 74]",
    "pIC50": 7.97
  },
  {
    "compound": "O=C(N[C@H]1CC[C@@H](C(=O)N2CCCC2)CC1)c1ccc(-c2cccc(F)c2)nc1 [Example 70]",
    "pIC50": 8.34
  },
  {
    "compound": "O=C(N[C@H]1CC[C@H](C(=O)O)CC1)c1ccc(-c2cccc(F)c2)nc1 [Example 84]",
    "pIC50": 7.40
  },
  {
    "compound": "O=C(N[C@@H]1CCC[C@H](C(=O)O)C1)c1ccc(-c2cccc(F)c2)nc1 (relative stereo) [Example 27]",
    "pIC50": 7.85
  },
  {
    "compound": "O=C(N[C@H]1CC[C@H](CO)CC1)c1ccc(-c2cccc(F)c2)nc1 [Example 103]",
    "pIC50": 8.84
  },
  {
    "compound": "CNCCN(C)C(=O)[C@@H]1CCC[C@H](NC(=O)c2ccc(-c3cccc(F)c3)nc2)C1 (relative stereo) [Example 37]",
    "pIC50": 7.60
  }
]
